Quick list: viability, T/C per entry.
System: 817829-284-R-J1-PDC complex spheroids, viability;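 further: spheroids exposed to agents for 7 days before readout; percent viability relative to DMSO vehicle control taken as 100%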
Test summary: Anticancer human tumor 817829-284-R-J1-PDC patient-derived colon adenocarcinoma cell line growth inhibition [GQUAD]
Details: second compound 0.1 µM; first compound 10 µM; stronger effect = lower value
Attribute measured: viability, T/C

COc1cc(C2c3cc4c(cc3C(OC3OC5COC(C)OC5C(O)C3O)C3COC(=O)C23)OCO4)cc(OC)c1O (configuration not stated) + CN(C)c1ccc(Nc2c3ccc(NC(=O)CCN4CCCC4)cc3nc3cc(NC(=O)CCN4CCCC4)ccc23)cc1
11%
C#Cc1c(F)ccc2cc(O)cc(-c3ncc4c(N5CC6CCC(C5)N6)nc(OCC56CCCN5CC(F)C6)nc4c3F)c12 (configuration not stated) + Cc1cnc(CNC(=O)c2c(=O)c3ccc(N4CCCN(C)CC4)nc3n3c2sc2ccccc23)cn1
35.9%
COc1ccc([C@@H](O)c2cc(-c3ncnc4cc(N5CCOCC5)ccc34)c(F)cc2Cl)nn1 + CN(C)c1ccc(Nc2c3ccc(NC(=O)CCN4CCCC4)cc3nc3cc(NC(=O)CCN4CCCC4)ccc23)cc1
54.7%
Nc1ccn(C2OC(CO)C(O)C2(F)F)c(=O)n1 (configuration not stated) + Cc1cnc(CNC(=O)c2c(=O)c3ccc(N4CCCN(C)CC4)nc3n3c2sc2ccccc23)cn1
4.03%
O=C(c1cc(Cc2n[nH]c(=O)c3ccccc23)ccc1F)N1CCN(C(=O)C2CC2)CC1 + Cc1cnc(CNC(=O)c2c(=O)c3ccc(N4CCCN(C)CC4)nc3n3c2sc2ccccc23)cn1
29.9%
O=C(NO)c1cnc(N2CCN(S(=O)(=O)c3ccc4ccccc4c3)CC2)nc1 + Cc1cnc(CNC(=O)c2c(=O)c3ccc(N4CCCN(C)CC4)nc3n3c2sc2ccccc23)cn1
0.06%
C=CCn1c(=O)c2cnc(Nc3ccc(N4CCN(C)CC4)cc3)nc2n1-c1cccc(C(C)(C)O)n1 + Cc1[nH]c2ccc(F)cc2c1-c1nc2c3cccnc3c3ncccc3c2[nH]1
4.08%
COc1ccc([C@@H](O)c2cc(-c3ncnc4cc(N5CCOCC5)ccc34)c(F)cc2Cl)nn1 + Cc1cnc(CNC(=O)c2c(=O)c3ccc(N4CCCN(C)CC4)nc3n3c2sc2ccccc23)cn1
19.3%
C#Cc1c(F)ccc2cc(O)cc(-c3ncc4c(N5CC6CCC(C5)N6)nc(OCC56CCCN5CC(F)C6)nc4c3F)c12 (configuration not stated) + Cc1[nH]c2ccc(F)cc2c1-c1nc2c3cccnc3c3ncccc3c2[nH]1
108%
Nc1ccn(C2OC(CO)C(O)C2(F)F)c(=O)n1 (configuration not stated) + Cc1[nH]c2ccc(F)cc2c1-c1nc2c3cccnc3c3ncccc3c2[nH]1
3.89%
O=C(c1cc(Cc2n[nH]c(=O)c3ccccc23)ccc1F)N1CCN(C(=O)C2CC2)CC1 + Cc1[nH]c2ccc(F)cc2c1-c1nc2c3cccnc3c3ncccc3c2[nH]1
60%
CC1COCCN1c1cc(-c2ccnn2C)c2ccnc(-c3ccn[nH]3)c2n1 (configuration not stated) + Cc1[nH]c2ccc(F)cc2c1-c1nc2c3cccnc3c3ncccc3c2[nH]1
4.22%
COc1cccc2c1C(=O)c1c(O)c3c(c(O)c1C2=O)CC(O)(C(=O)CO)CC3OC1CC(N)C(O)C(C)O1 (configuration not stated) + Cc1cnc(CNC(=O)c2c(=O)c3ccc(N4CCCN(C)CC4)nc3n3c2sc2ccccc23)cn1
0.19%
CC(C)n1c(=O)n(C)c2cnc3cc(F)c(-c4ccc(OCCCN5CCCCC5)nc4)cc3c21 + Cc1[nH]c2ccc(F)cc2c1-c1nc2c3cccnc3c3ncccc3c2[nH]1
117%
CC1COCCN1c1cc(-c2ccnn2C)c2ccnc(-c3ccn[nH]3)c2n1 (configuration not stated) + Cc1cnc(CNC(=O)c2c(=O)c3ccc(N4CCCN(C)CC4)nc3n3c2sc2ccccc23)cn1
3.97%
O=c1[nH]cc(F)c(=O)[nH]1 + CN(C)c1ccc(Nc2c3ccc(NC(=O)CCN4CCCC4)cc3nc3cc(NC(=O)CCN4CCCC4)ccc23)cc1
29.3%
CC(C)(O)C1CCC(Nc2ccc3ncc(-c4cccc(C(F)(F)F)c4)n3n2)CC1 (configuration not stated) + CN(C)c1ccc(Nc2c3ccc(NC(=O)CCN4CCCC4)cc3nc3cc(NC(=O)CCN4CCCC4)ccc23)cc1
59.2%
COc1cccc2c1C(=O)c1c(O)c3c(c(O)c1C2=O)CC(O)(C(=O)CO)CC3OC1CC(N)C(O)C(C)O1 (configuration not stated) + Cc1[nH]c2ccc(F)cc2c1-c1nc2c3cccnc3c3ncccc3c2[nH]1
0.15%
O=C(NO)c1cnc(N2CCN(S(=O)(=O)c3ccc4ccccc4c3)CC2)nc1 + Cc1[nH]c2ccc(F)cc2c1-c1nc2c3cccnc3c3ncccc3c2[nH]1
0.16%
O=c1[nH]cc(F)c(=O)[nH]1 + Cc1[nH]c2ccc(F)cc2c1-c1nc2c3cccnc3c3ncccc3c2[nH]1
31.5%
CC(C)(O)C1CCC(Nc2ccc3ncc(-c4cccc(C(F)(F)F)c4)n3n2)CC1 (configuration not stated) + Cc1[nH]c2ccc(F)cc2c1-c1nc2c3cccnc3c3ncccc3c2[nH]1
61.6%
C=CC(=O)N1CCN(c2nc(=O)n(-c3c(C)ccnc3C(C)C)c3nc(-c4c(O)cccc4F)c(F)cc23)C(C)C1 (configuration not stated) + Cc1[nH]c2ccc(F)cc2c1-c1nc2c3cccnc3c3ncccc3c2[nH]1
92.8%
